biological target: SOS1 (Homo sapiens, UniProt Q07889); construct: HIS-SOS1cat (160 nM; Cytoskeleton, US); His (N); purchased Cytoskeleton; experiment: SOS-catalyzed nucleotide exchange assay (HTRF, SOS1-mediated GTP loading of KRAS G12D); format: biochemical; settings: GST-KRAS G12D, HIS-SOS1cat, compound 128 pM to 10 µM; read-out: SOS-catalyzed nucleotide exchange assay
pIC50: −log10 of the molar value.
A collection of compounds and their measured pIC50
readout: pIC50

{"columns": ["compound", "readout", "value.reported"],
 "data": [
  ["C[C@@H](NC(=O)c1cc(C2CC2)c(=O)n(-c2cncc(-c3cnnn3C)c2)c1)c1cccc(C(F)(F)F)c1F", "pIC50", "> 7.30"],
  ["C[C@@H](NC(=O)c1ccc(=O)n(-c2cncc(-c3cnnn3C)c2)c1)c1cccc(C(F)(F)F)c1F", "pIC50", "> 7.30"],
  ["C[C@H](O)c1cc(C(=O)N[C@H](C)c2cccc(C(F)(F)F)c2F)nn(-c2cncc(-c3cnnn3C)c2)c1=O (single isomer, unassigned)", "pIC50", "6.82 to 7.30"]
]}

###

Quick reference for IC50 among some compounds
biological target: KRAS G12C::SOS1 (Homo sapiens); construct: purchased CISBIO 64KRASG12PEH; experiment: KRAS G12C::SOS1 protein-protein interaction (PPI) inhibition assay (HTRF); type: binding; details: 8 concentrations from 3 µM, three replicates; read-out: KRAS G12C::SOS1 PPI
readout: IC50

{"columns": ["compound", "measured.target", "readout", "value.reported"],
 "data": [
  ["C[C@@H](NC(=O)c1cc(C2CCCCC2)c(=O)n(-c2cncc(-c3cnnn3C)c2)n1)c1cccc(C(F)(F)F)c1F", "KRAS G12C::SOS1 (Homo sapiens)", "IC50", "50 to 150 nM"],
  ["C[C@@H](NC(=O)c1cc(C#N)c(=O)n(-c2cncc(-c3cnnn3C)c2)n1)c1cccc(C(F)F)c1F", "KRAS G12C::SOS1 (Homo sapiens)", "IC50", "> 150 nM"],
  ["C[C@@H](NC(=O)c1ccc(=O)n(-c2cncc(-c3cnnn3C)c2)n1)c1cc(N)cc(C(F)(F)F)c1F", "KRAS G12C::SOS1 (Homo sapiens)", "IC50", "< 50 nM"],
  ["C[C@@H](NC(=O)c1cc(C2=CCCCC2)c(=O)n(-c2cncc(-c3cnnn3C)c2)n1)c1cccc(C(F)(F)F)c1F", "KRAS G12C::SOS1 (Homo sapiens)", "IC50", "> 150 nM"],
  ["CC(C)n1nncc1-c1cncc(-n2nc(C(=O)N[C@H](C)c3cccc(C(F)(F)CO)c3F)ccc2=O)c1", "KRAS G12C::SOS1 (Homo sapiens)", "IC50", "50 to 150 nM"],
  ["CCn1nncc1-c1cncc(-n2nc(C(=O)N[C@H](C)c3cccc(C(F)(F)F)c3F)cc(C)c2=O)c1", "KRAS G12C::SOS1 (Homo sapiens)", "IC50", "50 to 150 nM"],
  ["C[C@@H](NC(=O)c1ccc(=O)n(-c2cncc(-c3cnnn3C)c2)c1)c1cccc(C(F)(F)F)c1F", "KRAS G12C::SOS1 (Homo sapiens)", "IC50", "< 50 nM"],
  ["C[C@@H](NC(=O)c1ccc(=O)n(-c2cncc(-c3cnnn3C)c2)n1)c1cccc(C(F)(F)F)c1Cl", "KRAS G12C::SOS1 (Homo sapiens)", "IC50", "50 to 150 nM"],
  ["COc1ncc(-n2nc(C(=O)N[C@H](C)c3cccc(C(F)(F)F)c3F)ccc2=O)cc1-c1cnnn1C", "KRAS G12C::SOS1 (Homo sapiens)", "IC50", "50 to 150 nM"],
  ["C[C@@H](NC(=O)c1ccc(=O)n(-c2cncc(-c3cnnn3C3CN(CCO)C3)c2)n1)c1cccc(C(F)(F)F)c1F", "KRAS G12C::SOS1 (Homo sapiens)", "IC50", "50 to 150 nM"],
  ["C[C@@H](NC(=O)c1ccc(=O)n(-c2cnc(F)c(-c3cnnn3C)c2)n1)c1cccc(C(F)F)c1F", "KRAS G12C::SOS1 (Homo sapiens)", "IC50", "> 150 nM"],
  ["C[C@@H](NC(=O)c1ccc(=O)n(-c2cncc(-c3cnnn3C)c2)n1)c1cccc(C2=CCC2)c1F (single isomer, unassigned)", "KRAS G12C::SOS1 (Homo sapiens)", "IC50", "> 150 nM"],
  ["Cc1ncc(-n2nc(C(=O)N[C@H](C)c3cccc(C(F)(F)F)c3F)ccc2=O)cc1-c1cnnn1C", "KRAS G12C::SOS1 (Homo sapiens)", "IC50", "50 to 150 nM"],
  ["C[C@@H](NC(=O)c1cc(C2CC2)c(=O)n(-c2cncc(-c3cnnn3C)c2)n1)c1cccc(C(F)(F)F)c1F", "KRAS G12C::SOS1 (Homo sapiens)", "IC50", "< 50 nM"]
]}

###

Biological target: SOS1 (Homo sapiens)
Construct: HIS-SOS1cat (160 nM; Cytoskeleton, US); His (N); purchased Cytoskeleton
Sequence (Q07889 564-1049 limits assumed): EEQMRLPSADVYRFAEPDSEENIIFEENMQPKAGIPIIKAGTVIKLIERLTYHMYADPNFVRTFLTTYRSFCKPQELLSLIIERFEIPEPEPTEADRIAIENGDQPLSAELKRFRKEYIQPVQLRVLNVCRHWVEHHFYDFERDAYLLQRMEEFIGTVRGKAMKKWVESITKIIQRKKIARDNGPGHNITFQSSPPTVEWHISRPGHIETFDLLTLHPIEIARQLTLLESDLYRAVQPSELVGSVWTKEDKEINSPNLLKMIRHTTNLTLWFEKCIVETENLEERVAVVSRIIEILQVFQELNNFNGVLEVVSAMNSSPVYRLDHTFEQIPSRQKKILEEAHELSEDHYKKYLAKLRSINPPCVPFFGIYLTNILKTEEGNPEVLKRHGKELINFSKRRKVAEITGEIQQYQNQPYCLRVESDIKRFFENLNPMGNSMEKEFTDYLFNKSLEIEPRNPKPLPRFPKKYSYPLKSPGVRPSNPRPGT
Assay: SOS-catalyzed nucleotide exchange assay (HTRF, SOS1-mediated GTP loading of KRAS G12D)
Assay type: biochemical
Conditions: GST-KRAS G12D, HIS-SOS1cat, compound 128 pM to 10 µM; read-out: SOS-catalyzed nucleotide exchange assay
pIC50: −log10 of the molar value.
readout: pIC50

{"columns": ["molecule", "readout", "value.reported"],
 "data": [
  ["C[C@@H](NC(=O)c1ccc(=O)n(-c2cncc(-c3cnnn3C)c2)n1)c1cc(N)cc(C(F)(F)F)c1F [Example 2-1]", "pIC50", "> 7.30"],
  ["C[C@@H](O)c1cc(C(=O)N[C@H](C)c2cccc(C(F)(F)F)c2F)nn(-c2cncc(-c3cnnn3C)c2)c1=O (single isomer, unassigned) [Example 9]", "pIC50", "> 7.30"],
  ["C[C@@H](NC(=O)c1ccc(=O)n(-c2cncc(-c3cnnn3C3CNC3)c2)n1)c1cccc(C(F)(F)CO)c1F [Example 20-2]", "pIC50", "> 7.30"],
  ["C[C@@H](NC(=O)c1ccc(=O)n(-c2cncc(-c3cnnn3[C@@H]3CCNC3)c2)n1)c1cccc(C(F)(F)F)c1F [Example 6-9]", "pIC50", "> 7.30"],
  ["CCn1nncc1-c1cncc(-n2nc(C(=O)N[C@H](C)c3cccc(C(F)(F)CO)c3F)ccc2=O)c1 [Example 1-18]", "pIC50", "> 7.30"],
  ["C[C@@H](NC(=O)c1cc(CO)c(=O)n(-c2cncc(-c3cnnn3C)c2)n1)c1cccc(C(F)(F)F)c1F [Example 1-61]", "pIC50", "6.82 to 7.30"],
  ["[2H]C([2H])([2H])[C@@H](NC(=O)c1ccc(=O)n(-c2cncc(-c3cnnn3C3CC3)c2)n1)c1cccc(C(F)(F)CO)c1F [Example 1-60]", "pIC50", "> 7.30"],
  ["CC(=O)c1cc(C(=O)N[C@H](C)c2cccc(C(F)(F)F)c2F)nn(-c2cncc(-c3cnnn3C)c2)c1=O [Example 1-62]", "pIC50", "6.82 to 7.30"],
  ["CCn1nccc1-c1cncc(-n2nc(C(=O)N[C@H](C)c3cccc(C(F)(F)CO)c3F)ccc2=O)c1 [Example 1-14]", "pIC50", "< 6.82"],
  ["Cc1cc(C(=O)N[C@H](C)c2cccc(C(F)(F)COS(=O)(=O)c3ccccn3)c2F)nn(-c2cncc(-c3cnnn3C)c2)c1=O [Example 8]", "pIC50", "> 7.30"],
  ["[2H]C([2H])([2H])n1nncc1-c1cnc(F)c(-n2nc(C(=O)N[C@H](C)c3cccc(C(F)(F)F)c3F)cc(C#N)c2=O)c1 [Example 3-5]", "pIC50", "6.82 to 7.30"],
  ["C[C@@H](NC(=O)c1cc(C(C)(C)O)c(=O)n(-c2cncc(-c3cnnn3C)c2)n1)c1cccc(C(F)(F)F)c1F [Example 1-59]", "pIC50", "> 7.30"],
  ["C[C@@H](NC(=O)c1ccc(=O)n(-c2cncc(-c3cnnn3C3COC3)c2)n1)c1cccc(C(F)(F)F)c1F [Example 1-57]", "pIC50", "> 7.30"]
]}
